# assay_procedure: RP, Waters CORTECS T3, 100 × 2.1 mm, 2.7 µm, 0.3 mL/min, estimated dead time 0.73 min; A: water + 0.1% formic acid, pH 3; B: methanol + 0.1% formic acid, pH 3; gradient (min/%B) 0/0 1/0 6/5 30/100 35/100 35.1/0 40/0
# cond: stereoisomer not certain
readout: LC retention time (min)

compound | value_reported
Nc1nc2c(ncn2C2OC3COP(=O)(O)OC3C2O)c(=O)[nH]1 (stereo not drawn) [GUANOSINE 3',5'-CYCLIC MONOPHOSPHATE] | 5.71
Nc1nc2c(ncn2C2OC(CO)C(O)C2O)c(=O)[nH]1 (stereo not drawn) | 5.43
CSCCC(NC=O)C(=O)O [FORMYL-L-METHIONYL PEPTIDE] | 7.57

====

# assay_procedure: RP, Waters CORTECS T3, 100 × 2.1 mm, 2.7 µm, 0.2 mL/min, estimated dead time 1.1 min; A: water + 0.1% formic acid, pH 3; B: methanol + 0.1% formic acid, pH 3; gradient (min/%B) 0/5 5/5 25/95 25.1/100 35/100 35.1/5 45/5
# cond: stereoisomer not certain
readout: LC retention time (min)

Worked cases, LC retention time given:
molecule | readout | value_reported
CC(=O)N[C@@H](CC(=O)O)C(=O)O | LC retention time | 2.78
CC(=O)NC(CC(N)=O)C(=O)O (centres undefined) | LC retention time | 2.67
CSCCC(NC=O)C(=O)O [FORMYL-L-METHIONYL PEPTIDE] | LC retention time | 13.3
N[C@@H](Cc1cc(I)c(Oc2ccc(O)cc2)c(I)c1)C(=O)O | LC retention time | 22.3
NC(CCCC(N)C(=O)O)C(=O)O (centres undefined) [LL-2,6-DIAMINOHEPTANEDIOATE] | LC retention time | 2.41
Nc1nc2ncc(CNc3ccc(C(=O)NC(CCC(=O)O)C(=O)O)cc3)nc2c(=O)[nH]1 (centres undefined) | LC retention time | 15.9
O=C(O)CCCCCCC(=O)O | LC retention time | 19.6
O=C(O)CCCCCC(=O)O [6-CARBOXYHEXANOATE] | LC retention time | 16.9

[P] COc1cc(C=CC(=O)O)ccc1O [FERULATE]
[Q] CC(O)(CC(=O)O)C(=O)O (centres undefined) [CITRAMALATE]
[R] NC(C(=O)O)C(O)C(O)C(O)CO (centres undefined) [GLUCOSAMINATE]
Sort the molecules on LC retention time; start with the lowest figure. Output the labels ranked as instructed. R, Q, P

====

# assay_procedure: RP, Waters CORTECS T3, 100 × 2.1 mm, 2.7 µm, 0.1 mL/min, estimated dead time 2.2 min; A: water + 0.1% formic acid, pH 3; B: methanol + 0.1% formic acid, pH 3; gradient (min/%B) 0/0 1/0 6/5 30/100 35/100 35.1/0 40/0
# cond: stereoisomer not certain
readout: LC retention time (min)

Worked cases, LC retention time given:
molecule | LC retention time / min
N[C@@H](Cc1ccccc1)C(=O)O [L-PHENYLALANINE] | 13.6
O=C(O)Cc1c[nH]c2ccc(O)cc12 [5-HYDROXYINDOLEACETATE] | 10.1
CSc1ncnc2nc[nH]c12 [THIOPURINE S-METHYLETHER] | 11.4
C=CC1=C(C)C(C=c2[nH]c(=Cc3[nH]c(C=C4NC(=O)C(C)=C4C=C)c(C)c3CCC(=O)O)c(CCC(=O)O)c2C)=NC1=O [BILIVERDIN] | 21

[I] CC(C)(CO)C(O)C(=O)NCCC(=O)O [D-PANTOTHENIC ACID]
[II] COC(=O)Cc1c[nH]c2ccccc12 [METHYL INDOLE-3-ACETATE]
Lab note: check whether I or II shows the higher recorded LC retention time. Pick one and reply with its label. II
(II: 17.2 min, I: 7.4 min)

[1] CCCCCCCCCCCC(=O)OC(CC(=O)[O-])C[N+](C)(C)C (centres undefined) [LAUROYLCARNITINE]
[2] CC(=O)N[C@@H](Cc1ccccc1)C(=O)O [N-ACETYL-L-PHENYLALANINE]
[3] Cn1cnc2c(ncn2C2OC(CO)C(O)C2O)c1=N (centres undefined) [1-METHYLADENOSINE]
Sort the molecules on LC retention time; start with the lowest figure. Output the labels ranked as instructed. 3, 2, 1

[a] CC(=O)OCC(=O)C1CCC2C3CCC4=CC(=O)CCC4(C)C3CCC12C (centres undefined) [DEOXYCORTICOSTERONE ACETATE]
[b] CC(=O)N[C@H](Cc1c[nH]c2ccccc12)C(=O)O [N-ACETYL-D-TRYPTOPHAN]
Lab note: check whether a or b shows the higher recorded LC retention time. Pick one and reply with its label. a
(a: 22.4 min, b: 13.9 min)

====

# assay_procedure: RP, Waters CORTECS T3, 100 × 2.1 mm, 2.7 µm, 0.15 mL/min, estimated dead time 1.5 min; A: water + 0.1% formic acid, pH 3; B: methanol + 0.1% formic acid, pH 3; gradient (min/%B) 0/0 1/0 6/5 30/100 35/100 35.1/0 40/0
# cond: stereoisomer not certain
readout: LC retention time (min)

compound | readout | value_reported
N[C@@H](Cc1ccccc1)C(=O)O | LC retention time | 16.7

[A] N[C@@H](Cc1cc(I)c(O)c(I)c1)C(=O)O
[B] Nc1ncnc2c1ncn2C1CC(O)C(COP(=O)(O)O)O1 (stereo not drawn)
Of A and B , which carries the smaller reported LC retention time figure? Pick one and reply with its label. B
(B: 1.78 min, A: 15.4 min)

====

# assay_procedure: RP, Waters ACQUITY UPLC BEH C18, 100 × 2.1 mm, 1.7 µm, 0.1 mL/min, estimated dead time 2.2 min; A: water + 0.1% formic acid, pH 3; B: methanol + 0.1% formic acid, pH 3; gradient (min/%B) 0/5 5/5 25/95 25.1/100 35/100 35.1/5 45/5
# cond: stereoisomer not certain
Quick reference: LC retention time of the listed items.
Write the number in min without appending the unit.

compound | display_unit | LC retention time
CC(C)=CCNc1ncnc2nc[nH]c12 [N6-(DELTA2-ISOPENTENYL)-ADENINE] | min | 17.3
CC1NCCc2cc(O)c(O)cc21 (stereo not drawn) [1-METHYL-6,7-DIHYDROXY-1,2,3,4-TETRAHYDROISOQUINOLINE] | min | 2.66

--- query ---
Measured LC retention time of O=C(O)c1ccc(=O)[nH]c1 [6-HYDROXYNICOTINATE] : 6.29

====

# assay_procedure: RP, Waters CORTECS T3, 100 × 2.1 mm, 2.7 µm, 0.2 mL/min, estimated dead time 1.1 min; A: water + 0.045% formic acid + 0.11% ammonium hydroxide, pH 7; B: methanol; gradient (min/%B) 0/5 5/5 25/95 25.1/100 35/100 35.1/5 45/5
# cond: stereoisomer not certain
readout: LC retention time (min)

Worked cases, LC retention time given:
compound | display_unit | LC retention time
Nc1cccc2ccccc12 [1-NAPHTHYLAMINE] | min | 14.5
Cn1c(=O)c2c(ncn2C)n(C)c1=O [CAFFEINE] | min | 11.6
O=C(O)c1cc(=O)c2ccccc2[nH]1 [4-HYDROXY-2-QUINOLINECARBOXYLIC ACID] | min | 7.9
CC(=O)OCC(=O)C1(O)CCC2C3CCC4=CC(=O)CCC4(C)C3C(O)CC21C (configuration not stated) [CORTISOL 21-ACETATE] | min | 19.9

[A] C=Cc1c(C)c2cc3[nH]c(cc4nc(cc5nc(cc1[nH]2)C(C)=C5CCC(=O)O)C(CCC(=O)O)=C4C)c(C)c3C=C [PROTOPORPHYRIN]
[B] CC(=O)N[C@@H](Cc1ccccc1)C(=O)O [N-ACETYL-L-PHENYLALANINE]
[C] NCCCCN=C(N)N [AGMATINE]
Ranking field: LC retention time; order: falling. Output the labels ranked as instructed. A, B, C
(A: 25.9 min, B: 9.59 min, C: 1.58 min)

====

# assay_procedure: RP, Waters CORTECS T3, 100 × 2.1 mm, 2.7 µm, 0.3 mL/min, estimated dead time 0.73 min; A: water + 0.1% formic acid, pH 3; B: methanol + 0.1% formic acid, pH 3; gradient (min/%B) 0/5 5/5 25/100 30/100 30.1/5 35/5
# cond: stereoisomer not certain
readout: LC retention time (min)

Worked cases, LC retention time given:
molecule | LC retention time / min
NC(Cc1cc(I)c(Oc2cc(I)c(O)c(I)c2)c(I)c1)C(=O)O (stereo not given) | 18.5
Cc1cc2nc3[nH]c(=O)[nH]c(=O)c3nc2cc1C | 14.6
COc1ccc2[nH]cc(CCNC(C)=O)c2c1 | 12.8
Cn1c(=O)c2c(ncn2C)n(C)c1=O | 10.1
N[C@@H](Cc1ccc(O)c([N+](=O)[O-])c1)C(=O)O | 4.34

[1] O=c1cc[nH]c(=O)[nH]1
[2] O=c1cccc[nH]1 [2-HYDROXYPYRIDINE]
[3] OCCc1c[nH]c2ccccc12
[4] CCCCCCCCCCCCCCCC(O)C(N)CO (stereo not given)
[5] CC(C)(CO)C(O)C(=O)NCCC(=O)O (stereo not given)
Sort the molecules on LC retention time; start with the lowest figure. Output the labels ranked as instructed. 1, 2, 5, 3, 4
(1: 0.95 min, 2: 1.91 min, 5: 5.2 min, 3: 12.7 min, 4: 22.2 min)

[1] N[C@@H](Cc1ccc(O)c(O)c1)C(=O)O [3,4-DIHYDROXY-L-PHENYLALANINE]
[2] Cc1cc2nc3c(=O)[nH]c(=O)nc-3n(CC(O)C(O)C(O)CO)c2cc1C (stereo not given)
Of 1 and 2 , which carries the smaller reported LC retention time figure? Pick one and reply with its label. 1
(1: 0.93 min, 2: 11.7 min)

[A] COc1cc(C=CC(=O)O)ccc1O [FERULATE]
[B] O=c1[nH]c(=O)c2[nH]cnc2[nH]1
[C] N[C@@H](Cc1c[nH]c2ccc(O)cc12)C(=O)O [5-HYDROXY-L-TRYPTOPHAN]
[D] CCCCCCCCCCCC(=O)OC(CC(=O)[O-])C[N+](C)(C)C (stereo not given)
[E] CCC(NC(=O)CCC(N)C(=O)O)C(=O)NCC(=O)O (stereo not given)
Sort the molecules on LC retention time; start with the lowest figure. Output the labels ranked as instructed. E, B, C, A, D
(E: 0.93 min, B: 1.53 min, C: 2.7 min, A: 12.3 min, D: 20 min)

[P] O=C(O)c1cc(=O)c2ccccc2[nH]1 [4-HYDROXY-2-QUINOLINECARBOXYLIC ACID]
[Q] NC(=O)c1cccnc1 [NICOTINAMIDE]
[R] CC1C(=O)Nc2ccccc21 (stereo not given)
[S] CC(=O)OCC(=O)C1CCC2C3CCC4=CC(=O)CCC4(C)C3CCC12C (stereo not given) [DEOXYCORTICOSTERONE ACETATE]
Ranking field: LC retention time; order: falling. Output the labels ranked as instructed. S, R, P, Q
(S: 20.4 min, R: 13.3 min, P: 9.17 min, Q: 1.2 min)
